Ref: ChEMBL document CHEMBL1201862

# Tested on: UACC-257
# Test Name: NCI tumour cell line growth inhibition, 48 h
Calls of active or inactive are those of the source. Rule as the data show it: active = GI50 up to about 1.1 µM and inactive = higher.
The compounds listed here are annotated with their GI50.

Here is how some compounds turned out for GI50.
| Compound | Quantity Name | Result |
| --- | --- | --- |
| CCNC1CC(C(C)(C)NCC)CC=C1C (centres undefined) | GI50 | > 100 µM (inactive) |
| O=[N+]([O-])C(/C(Cl)=C(/Cl)N1CCOCC1)=C1\NCCO1 | GI50 | > 100 µM (inactive) |
| Nc1nc(-c2ccc3ccccc3c2)cc(-c2cc(-c3ccc4ccccc4c3)nc(N)n2)n1 | GI50 | > 100 µM (inactive) |
| O=C1Nc2c(Cl)cc(Cl)cc2/C1=N/NC(=O)c1ccccc1O | GI50 | 17.9 µM (inactive) |
| O=C(CCCN1CCC(C(O)c2ccc(F)cc2)CC1)c1ccc(F)cc1 (centres undefined) | GI50 | 60.7 µM (inactive) |

Query: Tell me the measured GI50 of CCO[C@]12C[C@H](OC)[C@@]3(O)CC(C1[C@H]3OCc1ccccc1)C13C4C2[C@H](OC)C1[C@](COC)(CN4CC)[C@H](O)C[C@@H]3OC (some centres undefined) , please.
Reply: > 100 µM (inactive)

Query: Need GI50 of `O=c1ccc2ccc(OP(=O)(O)O)cc2o1` , thanks.
Reply: > 100 µM (inactive)

Query: Name the reported GI50 value associated with the compound `COc1cc(=O)oc(/C=C/C=O)c1C`
Reply: 18.9 µM (inactive)

Query: What measured GI50 goes with `c1ccc(/N=C(\N2CCCCC2)N(CCN2CCCCC2)c2ccccc2)cc1` ?
Reply: 1.82 µM (inactive)

Query: For the compound `Cn1c(=O)c2[nH]c(/N=N/N3CCN(CCO)CC3)nc2n(C)c1=O` , what GI50 is on record?
Reply: > 100 µM (inactive)

Query: Report GI50 for `CCCCCCCCCCCCn1[nH]c(C)c(C(=S)SCCCCCCCC)c1=O` please.
Reply: 41.8 µM (inactive)
